# experiment description: qHTS for Inhibitors of human tyrosyl-DNA phosphodiesterase 1 (TDP1): qHTS in cells in presence of CPT; also: nearly all actives have a fitted effect of over 55% in size
# conditions: chicken DT40 Tdp1-/-;hTDP1 cells + 20 nM CPT, ATP luminescence, 48 h; series mostly up to 46.2 µM
# Procedure: Human tyrosyl-DNA phosphodiesterase 1 (TDP1) is a novel repair gene, and we propose to use it as a new target for anticancer drug development. […] For the primary screen, Tdp1-/-;hTDP1 cells will be exposed to small molecules in the presence or absence of CPT, and their growth kinetics will be evaluated after 48 hours by measuring ATP activity. […] The hit compounds will then be evaluated in the presence or absence of CPT using Tdp1-/- cells. […]
Among all 420,000 compounds or so, about 50,000 (12%) were called active. Not shown: some 26% with an inconclusive outcome. Calls follow the shape of the dose curve; as a rule, active = well fitted inhibition curve with a large enough effect; inconclusive = small, poorly fitted or top-dose-only effect; inactive = flat fitted curve, though single readings scatter. The sample holds actives, similar compounds and a random draw of the others, so the mix is not that of the screen.
Select the matching outcome among active, inactive

Illustrative cases are given below, each with its answer.
O=C(NCCC1CCCCN1S(=O)(=O)c1ccccc1)C(=O)NCC1CCCO1 (configuration not stated)    inactive
CN1C(C(=O)NCC2CC2)CC2Cn3c(nc4ccccc43)C21 (configuration not stated)    inactive
CCOc1ccc(N2CC(C(=O)N/N=C/c3sccc3C)CC2=O)cc1 (configuration not stated)    inactive
CCOc1ccc(-c2ccc(SCC(=O)N3CCOCC3)nn2)cc1    inactive
CSCCC(NC(=O)COc1ccccc1)C(=O)OCCOc1ccc(F)cc1 (configuration not stated)    inactive

Field: outcome | Entry: "O=C(Nc1cc(-c2nn(CC(=O)N3CCCCC3)c(=O)c3ccccc23)ccc1N1CCOCC1)c1ccc(Cl)cc1"
inactive

Field: outcome | Entry: O=C(NCCC1CCCCN1S(=O)(=O)c1ccc(Cl)cc1)C(=O)NCc1ccco1 (configuration not stated)
active

Field: outcome | Entry: "COc1cccc(NC(=O)CN(C)C(=O)CSC(=S)N2CCCC2)c1"
inactive

Field: outcome | Entry: "C[C@@H](C(=O)N1CCNCC1)n1cc(CCC(=O)O)nn1"
inactive

Field: outcome | Entry: "COc1cccc(-c2ccc(SCC(=O)N3CCN(c4ccccc4)CC3)nn2)c1"
active

Field: outcome | Entry: "Cn1nc(C(F)(F)F)c2cc(C(=O)N3CCOCC3)sc21"
inactive

Field: outcome | Entry: CSCCC(NC(=O)COc1ccccc1)C(=O)N1CCN(c2cccc(C(F)(F)F)c2)CC1 (configuration not stated)
active

---

# experiment description: qHTS for Inhibitors of human tyrosyl-DNA phosphodiesterase 1 (TDP1): qHTS in cells in presence of CPT; also: nearly all actives have a fitted effect of over 55% in size
# conditions: chicken DT40 Tdp1-/-;hTDP1 cells + 20 nM CPT, ATP luminescence, 48 h; series mostly up to 46.2 µM
Out of some 420,000 compounds screened, about 50,000 (12%) were called active. Roughly 26% stayed inconclusive and do not appear here. Calls follow the shape of the dose curve; as a rule, active = well fitted inhibition curve with a large enough effect; inconclusive = small, poorly fitted or top-dose-only effect; inactive = flat fitted curve, though single readings scatter. This is one part of a sample in which actives are shown more often than they occur.
Select the matching outcome among active, inactive

Illustrative cases are given below, each with its answer.
CCC(CO)Oc1cc(NC(=O)c2ccc(Cl)cc2)c2ncn(C(C)C)c2c1 (configuration not stated)    inactive
CS(=O)(=O)N(CC(=O)NC1CCCC1)Cc1ccc(F)cc1    inactive
CN1CCN(C(=O)c2ccc(NC(=O)c3ccc(Br)o3)cc2)CC1    inactive
CCOc1ccc(CC(=O)NCCS(=O)(=O)N2CCN(c3ccccc3)CC2)cc1    inactive

Field: outcome | Entry: "Cc1ccc(Nc2ccc(C(N)=O)cc2[N+](=O)[O-])cc1"
inactive

Field: outcome | Entry: "O=C(CCC(=O)n1ncc2ccccc21)NCc1ccccc1Cl"
inactive

Field: outcome | Entry: "CCOc1ccc2c(=O)c(-c3ccc4c(c3)OCCCO4)c(C)oc2c1"
active

Field: outcome | Entry: "CCOC(=O)c1sc(=S)n(-c2cccc(OC)c2)c1N"
active

Field: outcome | Entry: "CC(C)=CCc1ccc(O)c(=O)cc1C(C)C"
active

---

# experiment description: qHTS for Inhibitors of human tyrosyl-DNA phosphodiesterase 1 (TDP1): qHTS in cells in presence of CPT; also: nearly all actives have a fitted effect of over 55% in size
# conditions: chicken DT40 Tdp1-/-;hTDP1 cells + 20 nM CPT, ATP luminescence, 48 h; series mostly up to 46.2 µM
About 50,000 (12%) of roughly 420,000 compounds were called active. Not shown: some 26% with an inconclusive outcome. Calls follow the shape of the dose curve; as a rule, active = well fitted inhibition curve with a large enough effect; inconclusive = small, poorly fitted or top-dose-only effect; inactive = flat fitted curve, though single readings scatter. For the sample, actives were picked, then their nearest neighbours and some compounds at random.
Select the matching outcome among t = active, f = inactive

Illustrative cases are given below, each with its answer.
COc1ccc(/C=C(\NC(=O)c2ccc(OCC(C)C)cc2)C(=O)OCc2ccco2)cc1    t
O=[N+]([O-])c1ccc(F)cc1Oc1nc(-c2cccnc2)nc2ccccc12    t

Kindly consider the entry below.
Field: outcome | Entry: "CCc1nn(CC(=O)Nc2cccc(C)c2C)c(=O)c2cc3sccc3n12"
f

---

# experiment description: qHTS for Inhibitors of human tyrosyl-DNA phosphodiesterase 1 (TDP1): qHTS in cells in presence of CPT; also: nearly all actives have a fitted effect of over 55% in size
# conditions: chicken DT40 Tdp1-/-;hTDP1 cells + 20 nM CPT, ATP luminescence, 48 h; series mostly up to 46.2 µM
Hit rate of the full screen: of about 420,000 compounds, about 50,000 (12%) were called active. About 26% were inconclusive and are not listed. Calls follow the shape of the dose curve; as a rule, active = well fitted inhibition curve with a large enough effect; inconclusive = small, poorly fitted or top-dose-only effect; inactive = flat fitted curve, though single readings scatter. What follows is part of a selection rich in actives, with near analogues and random picks from the rest.
Select the matching outcome among Yes = active, No = inactive

COc1ccc(CNC(=O)Cn2nnc(-c3ccccc3F)n2)cc1    No
CCCC12CN3CC(CCC)(CN(C1)C3c1c[nH]c3ccc(OC)cc13)C2=O (stereo not drawn)    Yes

Kindly consider the entry below.
Field: outcome | Entry: CCCC12CN3CC(C)(CN(C1)C3c1ccccc1Cl)C2=O (stereo not drawn)
No

---

# experiment description: qHTS for Inhibitors of human tyrosyl-DNA phosphodiesterase 1 (TDP1): qHTS in cells in presence of CPT; also: nearly all actives have a fitted effect of over 55% in size
# conditions: chicken DT40 Tdp1-/-;hTDP1 cells + 20 nM CPT, ATP luminescence, 48 h; series mostly up to 46.2 µM
Screen size: about 420,000 compounds; about 50,000 (12%) were called active. Roughly 26% stayed inconclusive and do not appear here. Calls follow the shape of the dose curve; as a rule, active = well fitted inhibition curve with a large enough effect; inconclusive = small, poorly fitted or top-dose-only effect; inactive = flat fitted curve, though single readings scatter. The list comes from a sample in which actives are over-represented; it also holds close analogues and randomly drawn compounds.
Select the matching outcome among active, inactive

Field: outcome | Entry: "O=C1CCc2cc(S(=O)(=O)Nc3ccc(C(F)(F)F)cc3)cc3c2N1CC3"
inactive

Field: outcome | Entry: "Cn1c(N)c(C(=O)COC(=O)/C=C/c2cccc(C(F)(F)F)c2)c(=O)n(C)c1=O"
inactive

Field: outcome | Entry: "Cn1c(=S)sc2ccc3ccccc3c21"
inactive

Field: outcome | Entry: "CN(Cc1ccco1)c1cc(-c2ccccc2C(F)(F)F)ncn1"
inactive

Field: outcome | Entry: C=CS(=O)c1sc(Cl)c(N2CCOCC2)c1[N+](=O)[O-] (stereo not drawn)
active

Field: outcome | Entry: CCN(C(=O)CSc1nnnn1-c1ccc(OC)cc1)C1CCS(=O)(=O)C1 (stereo not drawn)
inactive

Field: outcome | Entry: "O=C(c1ccccc1)N1CCN(c2cc(-c3ccccc3)nc3cc(-c4cccc(Cl)c4)nn23)CC1"
active

Field: outcome | Entry: "O=C(CN1CCC(O)(c2cccc(C(F)(F)F)c2)CC1)NCCc1ccccc1"
inactive

Field: outcome | Entry: "O=C(c1cccc(Cl)c1)N1CCN(Cc2ccccc2)CC1"
inactive

Field: outcome | Entry: "CCOC(=O)c1cccc(NC(=O)CCc2c(C)nc3ncnn3c2C)c1"
inactive

Field: outcome | Entry: "Cc1nn(C(=O)c2ccoc2C)c(N)c1-c1ccccc1"
inactive

Field: outcome | Entry: CCCNC(=O)C1(C)CCN(C(=O)c2ccccc2OC(F)(F)F)C1 (stereo not drawn)
inactive

---

# experiment description: qHTS for Inhibitors of human tyrosyl-DNA phosphodiesterase 1 (TDP1): qHTS in cells in presence of CPT; also: nearly all actives have a fitted effect of over 55% in size
# conditions: chicken DT40 Tdp1-/-;hTDP1 cells + 20 nM CPT, ATP luminescence, 48 h; series mostly up to 46.2 µM
The whole screen tested about 420,000 compounds, of which about 50,000 (12%) were called active. Inconclusive results (about 26%) are left out. Calls follow the shape of the dose curve; as a rule, active = well fitted inhibition curve with a large enough effect; inconclusive = small, poorly fitted or top-dose-only effect; inactive = flat fitted curve, though single readings scatter. This excerpt belongs to a sample that is enriched for actives.
Select the matching outcome among active, inactive

Illustrative cases are given below, each with its answer.
Cc1c(C(=O)NNC(=O)c2ccncc2)oc2ccccc12    inactive
Cc1cccc(C(=O)NCc2nnc(SC(C)C(=O)Nc3nnc(C)s3)n2C)c1 (stereo unspecified)    inactive
O=C(CSc1nnc(CNC(=O)c2ccccc2)n1-c1ccc(F)cc1)Nc1ccccc1F    inactive
CCOc1ccc(NC(=O)CCNC(=O)c2ccc(Br)cc2)cc1    inactive
Cc1ccc(NC(=O)NC(=O)c2ccccc2)cc1F    inactive

Field: outcome | Entry: Cc1nn(-c2ncccn2)c2c1C(=O)CC(C)(C)C2Br (stereo unspecified)
active

Field: outcome | Entry: "Cc1nn(-c2ccccc2)c2c1C(=O)NC(=O)C(C)(C)C2"
inactive

Field: outcome | Entry: CC(C)CN(C(=O)c1cccc(S(=O)(=O)N2CCCCC2)c1)C1CCS(=O)(=O)C1 (stereo unspecified)
inactive
